# target.of.assay: SpSla1-D1-D2
# test.name: SPOT peptide array binding signal intensity (averaged, normalized) (arbitrary units (background-subtracted, floor 0; scale differs between SH3 domains)); higher = stronger binding of the SH3 domain to the peptide
Exercise: for every item that follows, state its recorded SPOT peptide array binding signal intensity.

Would you please look over these solved cases?
VRVKKRPLIRPLNSS
≤ 0
NSVPIMPTLPPRPYI
≤ 0

Could you now look at the following binder, please?
Prompt line: Data request, read-out SPOT peptide array binding signal intensity, for EAEEAAPQLPSRSSA
Response line: 2
